meta.source: patent US20140243281A1

Assay: Pharmacokinetics (systemic exposure) of LUM001 in pediatric subjects
Format: in vivo, human
Conditions: human, serum; Subject 0410; 2.5 mg, 42.0 μg/kg QD; read-out: Average serum drug exposure
Description: LUM001 has been administered to forty patients under the age of 18 years old. […] The drug was administered once-a-day (QD) in the morning for fourteen days. […] These doses are similar to those using to treat children with cholestatic diseases.
experimental.readout: concentration at 8 day
Report as: number unit

**Q:** Which concentration at 8 day is listed for CCCCC1(CCCC)CS(=O)(=O)c2ccc(N(C)C)cc2[C@@H](c2ccc(OCc3ccc(C[N+]45CCN(CC4)CC5)cc3)cc2)[C@H]1O [LUM001] ?
**A:** 0 µg/mL

---

Assay: Pharmacokinetics (systemic exposure) of LUM001 in pediatric subjects
Format: in vivo, human
Settings: human, serum; Subject 0308; 1.0 mg, 28.9 μg/kg QD; read-out: Average serum drug exposure
experimental.readout: concentration at 8 day (ng/mL)
The reply should contain only the number, in ng/mL.

**Q:** Which concentration at 8 day is listed for CCCCC1(CCCC)CS(=O)(=O)c2ccc(N(C)C)cc2[C@@H](c2ccc(OCc3ccc(C[N+]45CCN(CC4)CC5)cc3)cc2)[C@H]1O ?
**A:** 0

---

Experiment: Pharmacokinetics (systemic exposure) of LUM001 in pediatric subjects
Format: in vivo, human
Settings: human, serum; Subject 0510; 5.0 mg, 168.4 μg/kg QD; read-out: Average serum drug exposure
experimental.readout: concentration at 8 day (ng/mL)
The reply should contain only the number, in ng/mL.

**Q:** Which concentration at 8 day is listed for CCCCC1(CCCC)CS(=O)(=O)c2ccc(N(C)C)cc2[C@@H](c2ccc(OCc3ccc(C[N+]45CCN(CC4)CC5)cc3)cc2)[C@H]1O [LUM001] ?
**A:** 0
